target: Kras and SOS1 (biotin-tagged human Kras loaded with GDP, His-tagged human SOS1) (Homo sapiens, UniProt P01116, G12D)
Construct: made in house; host or cells: E. coli (stated for Kras only)
Sequence (P01116 1-188 isoform P01116-2 G12D): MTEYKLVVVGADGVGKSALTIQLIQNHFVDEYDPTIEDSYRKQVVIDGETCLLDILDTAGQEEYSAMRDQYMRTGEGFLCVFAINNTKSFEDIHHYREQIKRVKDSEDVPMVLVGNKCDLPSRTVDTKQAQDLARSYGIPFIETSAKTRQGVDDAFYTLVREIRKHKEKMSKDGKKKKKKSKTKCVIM
assay details: Protein-protein interaction inhibition between Kras and SOS1 (KrasGl2D-SOS PPI) using AlphaScreen
Assay type: binding
condition parameters: AlphaScreen; biotin-tagged human Kras loaded with GDP, His-tagged human SOS1; read-out: KRAS G12D-SOS PPI IC50
pIC50: −log10 of the molar value. Starred links: 1 amine or outer side, 2 acyl side, 3 side chain; linkers in the order of their positions; H or OH if unused. Positions of bridges follow the written chain, without caps; N, C: chain ends. Non-standard residues stand in square brackets, D forms with d. Residues, ends and D or L forms follow the SMILES beside them. *: point of attachment. hPhe(3-Cl-4-CF3) = N[C@@H](CCc1ccc(C(F)(F)F)c(Cl)c1)C(=O)O; NMePhe(4-CF3) = CN[C@@H](Cc1ccc(C(F)(F)F)cc1)C(=O)O; hPhe(4-CF3) = N[C@@H](CCc1ccc(C(F)(F)F)cc1)C(=O)O; Piperazinyl(4-(3-oxetanyl)) = C1OCC1N1CCN(*)CC1; NMePhe(4-Cl) = CN[C@@H](Cc1ccc(Cl)cc1)C(=O)O; NMePhe(4-Me) = CN[C@@H](Cc1ccc(C)cc1)C(=O)O; NMedβ3hAla = C[C@H](CC(=O)[*:2])N(C)[*:1]; NMeGly(cPent) = CN[C@H](C(=O)O)C1CCCC1; Pro(4,4-F2) = O=C(O)[C@@H]1CC(F)(F)CN1; NMe3Pal = CN[C@@H](Cc1cccnc1)C(=O)O; NMeCha = CN[C@@H](CC1CCCCC1)C(=O)O; NMeChg = CN[C@H](C(=O)O)C1CCCCC1; NMeF = CN[C@@H](Cc1ccccc1)C(=O)O; NMeI = CC[C@H](C)[C@H](NC)C(=O)O; dNMeF = CN[C@H](Cc1ccccc1)C(=O)O; NMeD = CN[C@@H](CC(=O)O)C(=O)O; NMeL = CN[C@@H](CC(C)C)C(=O)O; NMeV = CN[C@H](C(=O)O)C(C)C; d(β3hA) = C[C@@H](N)CC(=O)O; dPip = O=C(O)[C@H]1CCCCN1; NMeA = CN[C@@H](C)C(=O)O; Piperidide = C1CCN(*)CC1; Pyrrolidide = C1CCN(*)C1; dNMeA = CN[C@H](C)C(=O)O; Ac5c = NC1(C(=O)O)CCCC1; Aze = O=C(O)[C@@H]1CCN1; Abu = CC[C@H](N)C(=O)O; Ac4c = NC1(C(=O)O)CCC1; Sar = CNCC(=O)O; OAll = C=CCO*
Binary call on pIC50: Condition met from 8 upward, Condition not met beneath that.

Worked cases, answers included:
{"compound": "CC[C@H](C)[C@@H]1NC(=O)[C@H](CC(C)C)N(C)C(=O)C[C@@H](C(=O)N2CCN(C3COC3)CC2)N(C)C(=O)[C@H](C2CCCCC2)N(C)C(=O)C2(CCCC2)NC(=O)[C@@H]2CCCN2C(=O)[C@H](CCc2ccc(C(F)(F)F)c(Cl)c2)NC(=O)CN(C)C(=O)[C@H](CC2CCCCC2)N(C)C(=O)CN(C)C(=O)CN(C)C1=O [Compound 1284] ([NMeL]I[Sar][Sar][NMeCha][Sar][hPhe(3-Cl-4-CF3)]P[Ac5c][NMeChg][NMeD]-{Piperazinyl(4-(3-oxetanyl))}; lactam N-11)", "label": "Condition met"}
{"compound": "CC[C@H](C)[C@@H]1NC(=O)[C@H](C)N(C)C(=O)C[C@@H](C(=O)N2CCCCC2)N(C)C(=O)[C@H]([C@@H](C)CC)N(C)C(=O)C2(CCCC2)NC(=O)[C@@H](Cc2ccccc2)N(C)C(=O)[C@H](CCc2ccc(C(F)(F)F)c(Cl)c2)NC(=O)CN(C)C(=O)[C@H](Cc2ccc(C)cc2)N(C)C(=O)[C@@H]2CCN2C(=O)[C@H](C)N(C)C1=O [Compound 1997] ([NMeA]I[NMeA][Aze][NMePhe(4-Me)][Sar][hPhe(3-Cl-4-CF3)][dNMeF][Ac5c][NMeI][NMeD]-Piperidide; lactam N-11)", "label": "Condition not met"}
{"compound": "CC[C@H](C)[C@@H]1NC(=O)[C@H](C)N(C)C(=O)C[C@@H](C)NC(=O)[C@H](C(C)C)N(C)C(=O)C2(CCCC2)NC(=O)[C@@H]2CCCN2C(=O)[C@H](CCc2ccc(C(F)(F)F)c(Cl)c2)NC(=O)[C@H]2CCCCN2C(=O)[C@H](CC2CCCCC2)N(C)C(=O)CN(C)C(=O)CN(C)C1=O [Compound 746] (cyclo([Ac5c][NMeV][d(β3hA)][NMeA]I[Sar][Sar][NMeCha][dPip][hPhe(3-Cl-4-CF3)]P))", "label": "Condition not met"}
{"compound": "CC[C@@H]1NC(=O)[C@H](CC(C)C)N(C)C(=O)C[C@@H](C(=O)N2CCCCC2)N(C)C(=O)[C@H](C2CCCCC2)N(C)C(=O)C2(CCCC2)NC(=O)[C@@H]2CCCN2C(=O)[C@H](CCc2ccc(C(F)(F)F)c(Cl)c2)NC(=O)CN(C)C(=O)[C@H](CC2CCCCC2)N(C)C(=O)CN(C)C(=O)CN(C)C1=O [Compound 1775] ([NMeL][Abu][Sar][Sar][NMeCha][Sar][hPhe(3-Cl-4-CF3)]P[Ac5c][NMeChg][NMeD]-Piperidide; lactam N-11)", "label": "Condition met"}
{"compound": "CC[C@H](C)[C@@H]1NC(=O)[C@H](C)N(C)C(=O)C[C@@H](C)NC(=O)[C@H](C2CCCC2)N(C)C(=O)C2(CCCC2)NC(=O)[C@@H]2CCCN2C(=O)[C@H](CCc2ccc(C(F)(F)F)c(Cl)c2)NC(=O)[C@@H](C)N(C)C(=O)[C@H](Cc2cccnc2)N(C)C(=O)CN(C)C(=O)CN(C)C1=O [Compound 919] (cyclo([Ac5c][NMeGly(cPent)][d(β3hA)][NMeA]I[Sar][Sar][NMe3Pal][dNMeA][hPhe(3-Cl-4-CF3)]P))", "label": "Condition not met"}

Quick check: does CC[C@H](C)[C@@H]1NC(=O)[C@H](CC(C)C)N(C)C(=O)C[C@@H](C)N(C)C(=O)[C@H](C2CCCC2)N(C)C(=O)C2(CCC2)NC(=O)[C@@H]2CC(F)(F)CN2C(=O)[C@H](CCc2ccc(C(F)(F)F)c(Cl)c2)NC(=O)CN(C)C(=O)[C@H](Cc2ccc(C(F)(F)F)cc2)N(C)C(=O)CN(C)C(=O)CN(C)C1=O [Compound 62] (cyclo([Ac4c][NMeGly(cPent)][NMedβ3hAla][NMeL]I[Sar][Sar][NMePhe(4-CF3)][Sar][hPhe(3-Cl-4-CF3)][Pro(4,4-F2)])) have pIC50 greater than or equal to 8?
Condition met

Quick check: does C=CCOC(=O)CC[C@@H]1NC(=O)[C@H](CCc2ccc(C(F)(F)F)cc2)NC(=O)CN(C)C(=O)[C@H](Cc2ccc(Cl)cc2)N(C)C(=O)CN(C)C(=O)CN(C)C(=O)[C@H]([C@@H](C)CC)NC(=O)[C@H](C)N(C)C(=O)C[C@@H](C(=O)N2CCCC2)NC(=O)[C@H](CC(C)C)N(C)C(=O)[C@H](Cc2ccccc2)N(C)C1=O [Compound 306] ([NMeA]I[Sar][Sar][NMePhe(4-Cl)][Sar][hPhe(4-CF3)]E(OAll)[NMeF][NMeL]D-Pyrrolidide; lactam N-11) have pIC50 greater than or equal to 8?
Condition not met

###

target: Kras and SOS1 (biotin-tagged human Kras loaded with GDP, His-tagged human SOS1) (Homo sapiens, UniProt P01116, G12D)
Construct: made in house; host or cells: E. coli (stated for Kras only)
assay details: Protein-protein interaction inhibition between Kras and SOS1 (KrasGl2D-SOS PPI) using AlphaScreen
Type: binding
condition parameters: AlphaScreen; biotin-tagged human Kras loaded with GDP, His-tagged human SOS1; read-out: KRAS G12D-SOS PPI IC50
Positions of bridges follow the written chain, without caps; N, C: chain ends. Non-standard residues stand in square brackets, D forms with d. Residues, ends and D or L forms follow the SMILES beside them. *: point of attachment. hPhe(3-F,4-CF3) = N[C@@H](CCc1ccc(C(F)(F)F)c(F)c1)C(=O)O; NMeNle(6-CHF2) = CN[C@@H](CCCCC(F)F)C(=O)O; NMeL = CN[C@@H](CC(C)C)C(=O)O; Pyrrolidide = C1CCN(*)C1; Aib = CC(C)(N)C(=O)O; Sar = CNCC(=O)O
endpoint label: IC50 (nM)
Numbers only; they are read as nM.

Supply IC50 value. Item: CC[C@H](C)[C@@H]1NC(=O)[C@H](CC(C)C)N(C)C(=O)C[C@@H](C(=O)N2CCCC2)NC(=O)[C@H](CC(C)C)N(C)C(=O)C(C)(C)NC(=O)[C@H](CC(C)C)N(C)C(=O)[C@H](CCc2ccc(C(F)(F)F)c(F)c2)NC(=O)CN(C)C(=O)[C@H](CCCCC(F)F)N(C)C(=O)CN(C)C(=O)CN(C)C1=O [Compound 1455] ([NMeL]I[Sar][Sar][NMeNle(6-CHF2)][Sar][hPhe(3-F,4-CF3)][NMeL][Aib][NMeL]D-Pyrrolidide; lactam N-11)
30
